biological target: Replicase polyprotein 1ab (Severe acute respiratory syndrome-related coronavirus); experiment: Inhibition of SARS coronavirus 3C-like protease at 200 uM after 60 mins by FRET assay
Lab note: anything with inhibition at or over 50% counts as TRUE; the rest go in FALSE.

CC(C)c1cc2c(cc1O)[C@@]1(C)CCC[C@@](C)(CO)[C@@H]1CC2 [18-HYDROXYFERRUGINOL]
FALSE
O=c1cc(-c2ccc(O)cc2)oc2cc(O)cc(O)c12 [APIGENIN]
FALSE
C=C1CC[C@H]2[C@](C)(CO)CCC[C@]2(C)[C@H]1CC/C(C)=C\CO [KAYADIOL]
TRUE
CC(C)C1=CC2=CC[C@@H]3[C@](C)(CCC[C@@]3(C)C(=O)O)[C@H]2CC1 [ABIETIC ACID]
TRUE
CC(C)c1cc2c(cc1O)[C@@]1(C)CCC[C@@](C)(C=O)[C@@H]1CC2 [18-OXOFERRUGINOL]
TRUE
C=C[C@@]1(C)CC[C@H]2C(=CC[C@@H]3[C@]2(C)CCC[C@@]3(C)C(=O)O)C1 [ISOPIMARIC ACID]
FALSE
CC(C)c1cc2c(cc1O)[C@@]1(C)CCCC(C)(C)[C@@H]1CC2 [FERRUGINOL]
TRUE
CC(C)c1cc2c(cc1O)[C@@]1(C)CC[C@H](O)C(C)(C)[C@@H]1CC2 [HINOKIOL]
FALSE
COC(=O)[C@]1(C)CCC[C@]2(C)c3ccc(C(C)C)cc3CC[C@@H]12 [METHYL DEHYDROABIETATE]
FALSE

Proceed to the following item.
Does CC(=O)Oc1cc2c(cc1C(C)C)CC[C@H]1[C@](C)(CO)CCC[C@]21C have a reported inhibition of at least 50%?
TRUE
